I'd appreciate it if you could supply nuclei count values for the items below.
measurementNotes: inhibitors of E-selectin induction by TNFa, primary screen, imaging, HUVEC, immunofluorescence, MLSMR starter and 10KST1 sets (AID 487);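 also: 100% = median nuclei count of all wells on the same plate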
setupConditions: HUVEC TNFalpha-induced E-selectin immunofluorescence imaging, at 2 µM; measured here: cell number, toxicity
One number for each entry, in %.

Below, 5 compounds whose answers are already recorded.
# compound, experimentalReadout, measurementUnit, numericValue
records = [
    ("CCOCCCNC(=O)CC1Oc2ccc(C)cc2NC1=O (stereo unspecified)", "nuclei count", "%", 121),
    ("CCC(C(=O)O)n1c(C(F)(F)F)nc2ccccc21 (stereo unspecified)", "nuclei count", "%", 108),
    ("COc1ccc(-c2ccc(Nc3ccc(S(=O)(=O)N4CCCC4)cc3)nn2)cc1OC", "nuclei count", "%", 109),
    ("CCCCCSc1nc(N2CCOCC2)c2c(c1C#N)CC(C)(C)OC2", "nuclei count", "%", 82.5),
    ("Cc1cccc(N2C(=O)CC(N3CCN(C(=O)c4ccccc4)CC3)C2=O)c1 (stereo unspecified)", "nuclei count", "%", 118),
]

Give nuclei count for all compounds that follow.
1. CC1(C)Cc2c(c(N3CCOCC3)nc3snc(Br)c23)CO1
2. COCc1nnc(NC(=O)CCCOc2ccccc2)s1

[130, 103]

Give nuclei count for all compounds that follow.
1. COc1ccc(C)cc1-n1nnnc1SCC(=O)Nc1cc(C)on1
2. Cc1nnc2n(-c3ccc(Cl)cc3)c(=O)c3c4c(sc3n12)CN(C)CC4

1. 150
2. 89.5

Give nuclei count for all compounds that follow.
1. CCOC(=O)N1CCN(S(=O)(=O)c2cc(Cl)ccc2Cl)CC1
2. CCOc1ccc2[nH]c(=O)c(C(c3nnnn3Cc3ccco3)N3CCC(C)CC3)cc2c1 (stereo unspecified)

1. 106
2. 82.3

* * *

measurementNotes: inhibitors of poly I:C-induced TLR3 signaling, primary screen, cell-based, poly I:C stimulus, luciferase, 10K MLSCN set (AID 602277)
setupConditions: HEK293-TLR3 RL24 IRF3 luciferase reporter, at 10 µM
Active and inactive are the calls of the source.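 How the source made its calls: active means inhibition of the reporter signal at or above 50%; inactive means inhibition below 50%.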
Select the correct class. Options are active, inactive and nothing else.

Below, 3 molecules whose answers are already recorded.
# molecule, qualitativeLabel
records = [
    ("Cc1nnc(SCC(=O)Nc2sc3c(c2C#N)CCCC3)[nH]c1=O", "inactive"),
    ("O=C(CSc1nnnn1-c1ccc(Cl)cc1)NC(=O)Nc1ccc2c(c1)OCCO2", "inactive"),
    ("CCOC(=O)C(CC)n1nc(C)n2c(cc3sccc32)c1=O (centres undefined)", "inactive"),
]

Answer briefly: the call reported for COC(=O)c1cc(-c2c(C)oc3cc(O)ccc3c2=O)c(C)o1 in this assay.
inactive

Answer briefly: the call reported for C(=C\c1ccccc1)/CN1CCN(Cc2ccc3c(c2)OCCO3)CC1 in this assay.
inactive

Answer briefly: the call reported for CCOC(=O)C1=C(C)NC(C)=C(C(=O)OCC)C1C(=O)OC1CCOC1=O (centres undefined) in this assay.
inactive

Answer briefly: the call reported for CCOC(=O)c1c(C)[nH]c(C(=O)CSc2nc3ccccc3o2)c1C in this assay.
inactive

* * *

measurementNotes: inhibitors of poly I:C-induced TLR3 signaling, primary screen, cell-based, poly I:C stimulus, luciferase, 10K MLSCN set (AID 602277)
setupConditions: HEK293-TLR3 RL24 IRF3 luciferase reporter, at 10 µM, stronger effect = higher value
experimentalReadout: inhibition (%)
Numbers only, in %.

Below, 5 molecules whose answers are already recorded.
# molecule, measurementUnit, inhibition
measured = [
    ("COc1ccccc1OCC(=O)N1CCN(c2ccccc2OC)CC1", "%", -1.87),
    ("CCOC(=O)N1CCN(CC(=O)c2c(C)[nH]c3ccccc23)CC1", "%", 6.29),
    ("Cc1cccc(NC(=O)COc2ccc(Br)cc2)n1", "%", -9.96),
    ("C/C=C/Cn1c(Br)nc2c1c(=O)[nH]c(=O)n2C", "%", 10.7),
    ("Cc1cc(C)n2nc(SCc3cc(=O)n4ccccc4n3)nc2n1", "%", 14.4),
]

Give inhibition for all molecules that follow.
1. CSc1nc2c(c(=O)n1C)SC(C)C2 (stereo unspecified)
2. CCn1c(C(=O)N2CCC(C(=O)N3CCN(c4ccccn4)CC3)CC2)cc2sccc21
3. Cc1ccc(-n2ncc3c(N4CCCC(C)C4)ncnc32)c(C)c1 (stereo unspecified)
4. CCOc1ccc(-c2nnn(CCC(=O)O)n2)cc1OC
5. CC(C)C(NC(=O)c1ccccc1NC(=O)c1ccco1)C(=O)O (stereo unspecified)
6. Cc1cc(NS(=O)(=O)c2ccc(NC(=O)Nc3ccc4c(c3)OCO4)cc2)no1

1: 31.4; 2: -29; 3: -125; 4: 9.91; 5: 21.5; 6: -20.7
